B1: ETS1 (parent)
chain: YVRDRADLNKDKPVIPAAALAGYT

- Variants of: B1
- methodSummary: protein stability index of a GFP-peptide fusion (GPS, HEK-293T) (PSI 1-6); higher = more stable;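 further: lentivirally expressed fusions sorted by FACS into six bins by GFP to DsRed ratio, PSI derived from sequencing read proportions per bin multiplied by bin number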
- setupConditions: c terminus: a fixed tail appended

>  <chainSequence>
YVRDRADLNKDKPTIPAAALAGYT

>  <protein stability index>
2.66

$$$$
>  <chainSequence>
YVRDGADLNKDKPVIPAAALAGYT

>  <protein stability index>
2.24

$$$$
>  <chainSequence>
YVRDRADLNKDKQVIPAAALAGYT

>  <protein stability index>
1.63

$$$$
>  <chainSequence>
YVRDRADLNGDKPVIPAAALAGYT

>  <protein stability index>
2.97

$$$$
>  <chainSequence>
YVRDRADLNKDKPVIPAAWLAGYT

>  <protein stability index>
2.98

$$$$
>  <chainSequence>
YVRDRADLNKDKPVIPHAALAGYT

>  <protein stability index>
2.15

$$$$
>  <chainSequence>
YPRDRADLNKDKPVIPAAALAGYT

>  <protein stability index>
3

$$$$
>  <chainSequence>
YVRDRADLNKDKPVIPAAALAGYD

>  <protein stability index>
1.45

$$$$
>  <chainSequence>
YVRDRADWNKDKPVIPAAALAGYT

>  <protein stability index>
2.23

$$$$
>  <chainSequence>
YVRDRADLNKDKPVYPAAALAGYT

>  <protein stability index>
1.95

$$$$
>  <chainSequence>
YVRDRAELNKDKPVIPAAALAGYT

>  <protein stability index>
2.37

$$$$
>  <chainSequence>
YVRDRADLNKDKPVTPAAALAGYT

>  <protein stability index>
1.91

$$$$
>  <chainSequence>
YVQDRADLNKDKPVIPAAALAGYT

>  <protein stability index>
2.08

$$$$
>  <chainSequence>
YVRDRADLNKDLPVIPAAALAGYT

>  <protein stability index>
2.47

$$$$
>  <chainSequence>
YVRDRADLNKDKPVIPAAGLAGYT

>  <protein stability index>
2.62

$$$$
>  <chainSequence>
YVRARADLNKDKPVIPAAALAGYT

>  <protein stability index>
2.68

$$$$
>  <chainSequence>
YVRDRADLNKDKPVIPEAALAGYT

>  <protein stability index>
2.19

$$$$
>  <chainSequence>
YVIDRADLNKDKPVIPAAALAGYT

>  <protein stability index>
1.66

$$$$
>  <chainSequence>
YVRDRMDLNKDKPVIPAAALAGYT

>  <protein stability index>
3.35

$$$$
>  <chainSequence>
YVNDRADLNKDKPVIPAAALAGYT

>  <protein stability index>
2.43

$$$$
>  <chainSequence>
YVRDRADLNKDKHVIPAAALAGYT

>  <protein stability index>
2.36

$$$$
>  <chainSequence>
YVRDRADLNKDKPVIPAAALAGYI

>  <protein stability index>
2.37

$$$$
>  <chainSequence>
RVRDRADLNKDKPVIPAAALAGYT

>  <protein stability index>
3.88

$$$$
>  <chainSequence>
YVTDRADLNKDKPVIPAAALAGYT

>  <protein stability index>
2.3

$$$$
>  <chainSequence>
YVRDRADLNKDTPVIPAAALAGYT

>  <protein stability index>
2.02

$$$$
>  <chainSequence>
YVRDRSDLNKDKPVIPAAALAGYT

>  <protein stability index>
2.05

$$$$
>  <chainSequence>
YVRDRADLNKDKPVILAAALAGYT

>  <protein stability index>
2.52

$$$$
>  <chainSequence>
YVRDRADLNKDKPVIPAAALALYT

>  <protein stability index>
1.85

$$$$
>  <chainSequence>
YVRDRADLNKDKTVIPAAALAGYT

>  <protein stability index>
2.4

$$$$
>  <chainSequence>
YVRDRADLNKDKPVIPAAALAGYL

>  <protein stability index>
2.7

$$$$
>  <chainSequence>
YVRDRADGNKDKPVIPAAALAGYT

>  <protein stability index>
2.12

$$$$
>  <chainSequence>
YVRDRADLNKDKPVIPAAAIAGYT

>  <protein stability index>
2.04

$$$$
>  <chainSequence>
YHRDRADLNKDKPVIPAAALAGYT

>  <protein stability index>
2.46

$$$$
>  <chainSequence>
YVRDRADLNKDKPVIPAAAAAGYT

>  <protein stability index>
2.06

$$$$
